Test system: NCI-H460
experimentSummary: NCI tumour cell line growth inhibition, 48 h
Activity calls are given as the source filed them. Cut-off read from the data, not from the text of the source: active = GI50 up to about 1.1 µM and inactive = higher.

| molecule | GI50 |
| --- | --- |
| CC1(C)CC(=O)C2=C(C1)OC1(CC2c2ccc(Cl)cc2)CC(c2ccc(Cl)cc2)C2=C(CC(C)(C)CC2=O)O1 (stereo not drawn) | 14.3 µM (inactive) |
| O=S(=O)(/N=C(\NO)Nc1ccc(Cl)cc1)c1cccc2nsnc12 | 38.7 µM (inactive) |
| Cc1[nH]n(-c2nc(O)c(C)c(=O)[nH]2)c(=O)c1CCO | > 100 µM (inactive) |
| [N-]=[N+]=Nc1cccc(-c2nnc(Cl)cc2O)c1 | > 100 µM (inactive) |
| NC(=O)N/N=C1\C[C@H]2CCCC[C@H]2C1 | > 100 µM (inactive) |
| CCN(CC)CCC(=O)N1C/C(=C/c2ccccc2)C(=O)/C(=C\c2ccccc2)C1 | 3.24 µM (inactive) |
| c1ccc2c(c1)ccc1nc(-c3ccc4c(c3)OCO4)c3c(c12)CCCC3 | 11.6 µM (inactive) |
| COc1ccc(OC)c2c1-c1nnnn1CCC2(C)C | > 100 µM (inactive) |
